Entry source: the NIST ThermoML archive (doi:10.1021/je0202073)

Experiment: refractive index (Na D-line) (dimensionless)
Conditions: 303.15 K; 101.33 kPa; Liquid; Abbe refractometer
measured attribute: refractive index

>  <molecule>
CCOC(=O)CC [ethyl propanoate]

>  <refractive index>
1.3791

$$$$
>  <molecule>
CCCC(=O)OCC [ethyl butanoate]

>  <refractive index>
1.388

$$$$
>  <molecule>
CCOC(C)=O [ethyl acetate]

>  <refractive index>
1.3675

$$$$
>  <molecule>
CCOC=O [ethyl methanoate]

>  <refractive index>
1.355

$$$$

###

Details: 298.15 K; 101.33 kPa; Liquid; vibrating tube
measured attribute: mass density (kg/m3)

>  <compound>
CCOC(=O)CC [ethyl propanoate]

>  <mass density / kg/m3>
883.95

$$$$
>  <compound>
CCCC(=O)OCC [ethyl butanoate]

>  <mass density / kg/m3>
873.94

$$$$
>  <compound>
CCOC(C)=O [ethyl acetate]

>  <mass density / kg/m3>
894.44

$$$$
>  <compound>
CCOC=O [ethyl methanoate]

>  <mass density / kg/m3>
914.53

$$$$
